- assay-info: endothelial E-selectin expression blockers – imaging, HUVEC, immunofluorescence, MLSMR starter and 10KST1 sets, primary screen (AID 487);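 also: signal is fraction of cell area covered by stained E-selectin grains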
- test-settings: HUVEC TNFalpha-induced E-selectin immunofluorescence imaging, at 2 µM; stronger effect = higher value
Items are presented alongside their recorded inhibition.
Report the value in % with no unit label.

Below, each entry is followed by its recorded inhibition result.
Identify the reported inhibition for the following entry. COc1ccc(-c2c3c(=O)n(C)c(=O)n(C)c3cn2-c2cccc(OC)c2)cc1
-50.3

Identify the reported inhibition for the following entry. Cc1[nH]nc2c1C1(CCN(C(=O)c3ccccc3)CC1)C(C#N)=C(N)O2
23.5

Identify the reported inhibition for the following entry. Cc1oc(-c2ccccc2F)nc1CS(=O)(=O)CC(=O)N1CCCCCC1
-40.3

Identify the reported inhibition for the following entry. COc1cc(S(=O)(=O)N2CCOCC2)ccc1NC(=O)COC(=O)c1ccccn1
-45.4

Identify the reported inhibition for the following entry. O=C(Nc1ccc(-c2nc3ncccc3o2)cc1)c1ccc(Br)o1
8.6

Next:
Identify the reported inhibition for the following entry. CCOC(=O)C1CCN(C(=O)CSc2cc(=O)n(CC)c3ccccc23)CC1
-26.1

Identify the reported inhibition for the following entry. COc1cc(Cn2c(-c3nonc3N)nc3ccccc32)ccc1C
-20.1

Identify the reported inhibition for the following entry. COc1ccc(CCn2c(-c3ccco3)nc3ccccc3c2=O)cc1OC
-99.5

Identify the reported inhibition for the following entry. Cc1c(NC(=O)C(C)Oc2ncnc3ccccc23)c(=O)n(-c2ccccc2)n1C (configuration not stated)
-5.8

Identify the reported inhibition for the following entry. Clc1ccc(Cl)c(-c2nn3c(Cn4cnc5ccccc54)nnc3s2)c1
-91.4

Identify the reported inhibition for the following entry. CN(CC(=O)N1CCCCC1)S(=O)(=O)c1cccc2cccnc12
-53.1

Identify the reported inhibition for the following entry. COCC(=O)n1nc(NCc2ccc(OC)cc2)nc1NCc1ccc(OC)cc1
-25.2

Identify the reported inhibition for the following entry. CCOCCCNC(=O)C1CCC(=O)N1CCc1ccccc1 (configuration not stated)
-20
